Reference source: paper PMC10895674

- assay: Pharmacokinetics IV and PO
- Parameters: species or system Rat
- recorded.conditions: in vivo; Rat IV, dose 2 mg/kg
attribute.measured: clearance (mL/min/kg)
Reply with just the number (in mL/min/kg).

State its clearance: CCN(c1cc(-c2cccc(N(C)C(=O)c3cc(C(C)C)c(O)cc3O)c2)cc(C(=O)NCc2c(C)cc(C)[nH]c2=O)c1C)C1CCOCC1 [Compound 7] 81.8

====

- assay: Pharmacokinetics IV and PO
- Design: species or system Rat
- recorded.conditions: in vivo; Rat IV 2 mg/kg, 2 hr; read-out: Drug Conc. Avg.
attribute.measured: concentration at 2 hr

Please report concentration at 2 hr for the following compound: `CCN(c1cc(-c2cccc(N(C)C(=O)c3cc(C(C)C)c(O)cc3O)c2)cc(C(=O)NCc2c(C)cc(C)[nH]c2=O)c1C)C1CCOCC1` 30.5 ng/mL

====

- assay: Pharmacokinetics IV and PO
- Parameters: species or system Rat
- recorded.conditions: in vivo; Rat PO 20 mg/kg, 0.5 hr; read-out: Drug Conc. Avg.
attribute.measured: concentration at 0.5 hr (ng/mL)
Hi! Could you send only the number? It should be in ng/mL, unit omitted.

Kindly indicate its recorded concentration at 0.5 hr. Item: `CCN(c1cc(-c2cccc(N(C)C(=O)c3cc(C(C)C)c(O)cc3O)c2)cc(C(=O)NCc2c(C)cc(C)[nH]c2=O)c1C)C1CCOCC1` 11.1

====

- assay: Pharmacokinetics IV and PO
- Set-up: species or system Rat
- recorded.conditions: in vivo; Rat PO 20 mg/kg, 0.25 hr; read-out: Drug Conc. Avg.
attribute.measured: concentration at 0.25 hr (ng/mL)
Numbers only; they are read as ng/mL.

State its concentration at 0.25 hr: `CCN(c1cc(-c2cccc(N(C)C(=O)c3cc(C(C)C)c(O)cc3O)c2)cc(C(=O)NCc2c(C)cc(C)[nH]c2=O)c1C)C1CCOCC1` 23

====

- assay: Pharmacokinetics IV and PO
- Parameters: species or system Rat
- recorded.conditions: in vivo; Rat PO 20 mg/kg, 4 hr; read-out: Drug Conc. Avg.
attribute.measured: concentration at 4 hr
A complete answer gives the number followed by the unit.

Give concentration at 4 hr for `CCN(c1cc(-c2cccc(N(C)C(=O)c3cc(C(C)C)c(O)cc3O)c2)cc(C(=O)NCc2c(C)cc(C)[nH]c2=O)c1C)C1CCOCC1` 18.1 ng/mL

====

- assay: Pharmacokinetics IV and PO
- Parameters: species or system Rat
- recorded.conditions: in vivo; Rat IV 2 mg/kg, 0.03 hr; read-out: Drug Conc. Avg.
attribute.measured: concentration at 0.03 hr (ng/mL)
Unit ng/mL implied. Number only.

Note concentration at 0.03 hr for the compound shown: `CCN(c1cc(-c2cccc(N(C)C(=O)c3cc(C(C)C)c(O)cc3O)c2)cc(C(=O)NCc2c(C)cc(C)[nH]c2=O)c1C)C1CCOCC1` 2790

====

- assay: Pharmacokinetics IV and PO
- Set-up: species or system Rat
- recorded.conditions: in vivo; Rat IV 2 mg/kg, 6 hr; read-out: Drug Conc. Avg.
attribute.measured: concentration at 6 hr (ng/mL)
// note: answer is a bare numeric in ng/mL

Please give the documented concentration at 6 hr of CCN(c1cc(-c2cccc(N(C)C(=O)c3cc(C(C)C)c(O)cc3O)c2)cc(C(=O)NCc2c(C)cc(C)[nH]c2=O)c1C)C1CCOCC1 [Compound 7] 1.1
